The entries below are paired with their reported Ratio (variant antibody KD/burosumab KD).
Biological target: T1, recombinant human FGF23 (R179Q) (human, UniProt Q9GZV9 25-251)
T1 construct: also called rhFGF23(R179Q); hFGF23(R179Q)
T1 sequence (looked up): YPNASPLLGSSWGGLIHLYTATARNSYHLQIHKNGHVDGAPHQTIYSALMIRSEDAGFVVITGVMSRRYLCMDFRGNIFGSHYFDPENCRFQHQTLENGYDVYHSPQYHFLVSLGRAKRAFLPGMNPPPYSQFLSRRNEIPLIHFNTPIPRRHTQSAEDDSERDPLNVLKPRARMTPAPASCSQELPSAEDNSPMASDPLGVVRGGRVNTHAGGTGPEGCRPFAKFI
Test: SPR, antibody captured on hIgG chip, rhFGF23(R179Q) analyte
test.readout: Ratio (variant antibody KD/burosumab KD)

INSERT INTO measurements (binder, test_readout, assay_value) VALUES
  ('UGX175 (antibody, human IgG1, kappa, V domains shown, also called HC:A103S; A103S) VH: QVQLVQSGAEVKKPGASVKVSCKASGYTFTNHYMHWVRQAPGQGLEWMGIINPISGSTSNAQKFQGRVTMTRDTSTSTVYMELSSLRSEDTAVYYCARDIVDSFDFWGQGTMVTVSS VL: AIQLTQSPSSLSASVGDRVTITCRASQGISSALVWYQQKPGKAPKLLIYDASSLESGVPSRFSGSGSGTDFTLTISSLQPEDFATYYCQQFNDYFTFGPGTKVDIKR', 'Ratio (variant antibody KD/burosumab KD)', 3),
  ('UGX157 (antibody, human IgG1, kappa, V domains shown, also called HC:I54Y; I54Y) VH: QVQLVQSGAEVKKPGASVKVSCKASGYTFTNHYMHWVRQAPGQGLEWMGIINPYSGSTSNAQKFQGRVTMTRDTSTSTVYMELSSLRSEDTAVYYCARDIVDAFDFWGQGTMVTVSS VL: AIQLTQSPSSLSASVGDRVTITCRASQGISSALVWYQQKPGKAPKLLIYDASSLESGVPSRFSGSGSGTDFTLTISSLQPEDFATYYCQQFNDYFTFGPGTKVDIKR', 'Ratio (variant antibody KD/burosumab KD)', 3),
  ('UGX152 (antibody, human IgG1, kappa, V domains shown, also called HC:N31Q) VH: QVQLVQSGAEVKKPGASVKVSCKASGYTFTQHYMHWVRQAPGQGLEWMGIINPISGSTSNAQKFQGRVTMTRDTSTSTVYMELSSLRSEDTAVYYCARDIVDAFDFWGQGTMVTVSS VL: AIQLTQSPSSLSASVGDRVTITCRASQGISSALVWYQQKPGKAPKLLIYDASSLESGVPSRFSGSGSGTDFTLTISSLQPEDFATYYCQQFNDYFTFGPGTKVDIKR', 'Ratio (variant antibody KD/burosumab KD)', 0);

Where these numbers come from: patent US20260250371A1
